assay_system: Xyl43 (Penicillium oxalicum, UniProt S7ZRR2)
Construct: full-length, 348 residues, no native signal peptide; alpha-factor secretion signal, C-terminal His6 tag kept; Pichia pastoris X-33 (pPICZalphaA)
Sequence (S7ZRR2 entry or part of it): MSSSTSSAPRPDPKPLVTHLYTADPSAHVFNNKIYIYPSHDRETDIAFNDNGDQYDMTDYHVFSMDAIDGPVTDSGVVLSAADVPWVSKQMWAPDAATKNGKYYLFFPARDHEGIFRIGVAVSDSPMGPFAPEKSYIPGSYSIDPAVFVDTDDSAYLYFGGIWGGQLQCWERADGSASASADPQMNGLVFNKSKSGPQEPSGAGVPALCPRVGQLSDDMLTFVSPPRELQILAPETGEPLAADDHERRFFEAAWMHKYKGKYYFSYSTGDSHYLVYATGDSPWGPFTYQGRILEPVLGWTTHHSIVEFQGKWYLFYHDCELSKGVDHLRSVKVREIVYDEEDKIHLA
assay: pNPX hydrolysis, Dixon plot
study_conditions: substrate pNPX 0.5 and 1 mg/ml, pH 7.0, 50 °C; end product; described as uncompetitive; Table 1 prints 28.9
pKi: −log10 of the molar value.
endpoint_name: pKi

In [3]: df
Out[3]:
                                   compound                              assay_system  endpoint_name  readout_number
0  OC1OC[C@@H](O)[C@H](O)[C@H]1O (stereo partly shown)  Xyl43 (Penicillium oxalicum, UniProt S7ZRR2)            pKi            1.55
